- Measured on: UniProtKB P35372
- Sequence (P35372 whole entry, species assumed): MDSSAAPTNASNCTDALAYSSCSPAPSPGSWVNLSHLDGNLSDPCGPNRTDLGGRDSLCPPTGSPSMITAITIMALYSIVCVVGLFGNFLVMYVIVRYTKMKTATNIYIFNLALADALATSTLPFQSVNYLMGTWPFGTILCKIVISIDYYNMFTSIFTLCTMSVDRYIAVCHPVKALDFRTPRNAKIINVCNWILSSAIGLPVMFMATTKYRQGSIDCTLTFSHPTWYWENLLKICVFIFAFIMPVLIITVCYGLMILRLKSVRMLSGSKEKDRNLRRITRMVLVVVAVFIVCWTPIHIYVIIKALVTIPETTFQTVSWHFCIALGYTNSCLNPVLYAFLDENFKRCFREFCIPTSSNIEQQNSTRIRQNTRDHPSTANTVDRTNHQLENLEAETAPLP
- Assay explanation: μ-opioid receptor [35S]GTPγS functional assay, U-2 OS cells
- Assay type: biochemical
- Set-up: host or cells: U-2 OS cells
- Assay conditions: U2-OS cells; relative to DAMGO
Emax of 9% or higher: 1. Under 9%: 0.

Problem: Threshold query (Emax >= 9%) on `COc1ccc2c(c1)[C@@]13CC[C@H](NCC(C)C)C[C@@]1(O)[C@@H](C2)N(CC1CC1)CC3`
Result: 1

Problem: Threshold query (Emax >= 9%) on `O=C(N[C@H]1C[C@@]2(O)[C@H]3Cc4ccc(O)cc4[C@@]2(CCN3CC2CC2)C[C@H]1O)C1CC1`
Result: 0

Problem: Threshold query (Emax >= 9%) on `CC(=O)N[C@H]1C[C@@]2(O)[C@H]3Cc4ccc(O)cc4[C@@]2(CCN3CC2CC2)C[C@H]1O`
Result: 0

Problem: Threshold query (Emax >= 9%) on `COc1ccc2c(c1)[C@]13CCN(CC4CC4)[C@H](C2)[C@]1(O)C[C@@H](NCC(C)C)[C@@H](O)C3`
Result: 1

Problem: Threshold query (Emax >= 9%) on `COc1ccc2c(c1)[C@]13CCN(CC4CC4)[C@H](C2)[C@]1(O)CC[C@@H](CC(=O)O)C3`
Result: 1

Problem: Threshold query (Emax >= 9%) on CCC(C)C[C@H]1C[C@@]2(O)[C@H]3Cc4ccc(O)cc4[C@@]2(CCN3CC2CC2)C[C@H]1O (stereo partly shown)
Result: 0

---

Hi there, I'd appreciate the recorded pEC50 for every entry that follows.
- Measured on: human κ opioid receptor (Homo sapiens, UniProt P41145)
- Sequence (P41145 whole entry): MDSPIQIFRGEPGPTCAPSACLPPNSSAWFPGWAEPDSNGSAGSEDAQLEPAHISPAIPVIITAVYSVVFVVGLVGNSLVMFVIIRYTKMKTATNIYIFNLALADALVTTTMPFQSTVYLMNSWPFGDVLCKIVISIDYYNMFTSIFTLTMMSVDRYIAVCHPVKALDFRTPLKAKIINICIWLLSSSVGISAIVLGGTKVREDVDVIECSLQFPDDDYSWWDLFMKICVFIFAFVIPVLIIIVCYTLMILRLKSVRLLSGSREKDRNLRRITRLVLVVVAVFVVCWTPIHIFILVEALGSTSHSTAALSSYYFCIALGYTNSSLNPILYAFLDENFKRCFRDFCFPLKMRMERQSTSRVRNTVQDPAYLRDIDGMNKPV
- Assay explanation: κ-opioid receptor [35S]GTPγS functional assay, U-2 OS cells
- Format: biochemical
- Set-up: expressed in transfected cells; host or cells: U-2 OS cells (in-house membranes)
Kindly note that pEC50 refers to -log10 of the concentration in mol/L and answer with the value alone.

Problem: Endpoint output: pEC50 of CN(C)[C@H]1CC[C@@]2(O)[C@H]3Cc4ccc(O)cc4[C@@]2(CCN3CC2CC2)C1 [Compound 10] . Value?
Result: 9.10

Problem: Endpoint output: pEC50 of CC(C)CC(=O)N[C@H]1C[C@@]2(O)[C@H]3Cc4ccc(O)cc4[C@@]2(CCN3CC2CC2)C[C@H]1O [Compound 60] . Value?
Result: 7.50

Problem: Endpoint output: pEC50 of CC(C)C(=O)N[C@H]1CC[C@]23CCN(CC4CC4)[C@H](Cc4ccc(O)cc42)[C@]3(O)C1 [Compound 46] . Value?
Result: 10.00

---

- Measured on: human κ opioid receptor (Homo sapiens)
- Assay explanation: κ-opioid receptor [35S]GTPγS functional assay, U-2 OS cells
- Format: biochemical
- Set-up: expressed in transfected cells; host or cells: U-2 OS cells (in-house membranes)
- Assay conditions: U2-OS cells; relative to U69,593
Endpoint label: Emax (%)
The figure you give is taken to be in %; do not add the unit.

Problem: Endpoint output: Emax of `N=C(N)NCCC(=O)N[C@@H]1CC[C@@]2(O)[C@H]3Cc4ccc(O)cc4[C@@]2(CCN3CC2CC2)C1` . Value?
Result: 105

Problem: Endpoint output: Emax of `NCCCCN[C@@H]1CC[C@@]2(O)[C@H]3Cc4ccc(O)cc4[C@@]2(CCN3CC2CC2)C1` . Value?
Result: 112

Problem: Endpoint output: Emax of `N=C(N)NCCN[C@H]1CC[C@]23CCN(CC4CC4)[C@H](Cc4ccc(O)cc42)[C@]3(O)C1` . Value?
Result: -1

Problem: Endpoint output: Emax of CC(C)C(=O)N[C@H]1C[C@@]2(O)[C@H]3Cc4ccc(O)cc4[C@@]2(CCN3CC2CC2)CC1O (some centres unmarked) . Value?
Result: 91.7

Problem: Endpoint output: Emax of `O=C(N[C@H]1C[C@@]2(O)[C@H]3Cc4ccc(O)cc4[C@@]2(CCN3CC2CC2)C[C@H]1O)c1ccccc1` . Value?
Result: 71.7

Problem: Endpoint output: Emax of `N=C(N)NCCN[C@@H]1CC[C@@]2(O)[C@H]3Cc4ccc(O)cc4[C@@]2(CCN3CC2CC2)C1` . Value?
Result: 105

Problem: Endpoint output: Emax of `Oc1ccc2c(c1)[C@]13CCN(CC4CC4)[C@H](C2)[C@]1(O)C[C@@H](N1CCCC1)[C@@H](O)C3` . Value?
Result: 80

Problem: Endpoint output: Emax of `CN(C)[C@H]1CC[C@@]2(O)[C@H]3Cc4ccc(O)cc4[C@@]2(CCN3CC2CC2)C1` . Value?
Result: 101

Problem: Endpoint output: Emax of `CC(C)CN[C@@H]1C[C@@]2(O)[C@H]3Cc4ccc(O)cc4[C@@]2(CCN3CC2CC2)C[C@@H]1O` . Value?
Result: 71

Problem: Endpoint output: Emax of `Oc1ccc2c(c1)[C@]13CCN(CC4CC4)[C@H](C2)[C@]1(O)C[C@H](CC1CCCC1)[C@H](O)C3` . Value?
Result: 97.7

Problem: Endpoint output: Emax of `CC(C)CN[C@H]1CC[C@]23CCN(CC4CC4)[C@H](Cc4ccc(O)cc42)[C@]3(O)C1` . Value?
Result: 110
